- test system: T1, CD123 (Homo sapiens (Human), UniProt P26951 19-305, limits assumed)
- T1 construct: The CD123 construct used in the ELISA is not described; also called CD123-Signal
- T1 sequence: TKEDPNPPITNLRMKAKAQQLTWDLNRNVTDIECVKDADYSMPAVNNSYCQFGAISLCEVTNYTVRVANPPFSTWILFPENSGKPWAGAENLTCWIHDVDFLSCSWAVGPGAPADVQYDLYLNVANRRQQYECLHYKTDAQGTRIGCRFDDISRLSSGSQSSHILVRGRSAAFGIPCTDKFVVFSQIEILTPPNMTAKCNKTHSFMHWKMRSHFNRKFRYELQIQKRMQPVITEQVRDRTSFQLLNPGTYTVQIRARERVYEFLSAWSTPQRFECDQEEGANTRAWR
- method: ELISA
- Set-up: unit not given here
Returns one of criterion met or criterion not met; criterion met when ELISA_avg is >= 6.

1) D domain of SEQ ID NO: 439 (designed binder) MGSWYEFAKRLDAIYERLVALGGSEAELAAFEKEIAAFESELQAYKGKGNPEVEWLRSSAANIREELQAYRHN : criterion met
2) D domain of SEQ ID NO: 559 (designed binder) MGSWAEFKHDLADIKRELEALGGSEAELAWFELSIAFFEDELQHYKGKGNPEVEALRKEAAAIRDELQAYRHN : criterion not met
3) D domain of SEQ ID NO: 423 (designed binder) MGSWSEFYDRLWAIEERLFALGGSEAELAAFEKEIAAFESELQAYKGKGNPEVEYLRYYAAEIREELQAYRHN : criterion met
4) D domain of SEQ ID NO: 497 (designed binder) MGSWNTFKYELAEIKHFLEALGGSEAELAMFEDDIAMFEWELQEYKGKGNPEVEALRKEAAAIRDELQAYRHN : criterion not met
